Origin of measurements: paper PMC5540273

- Tested on: LATS2;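 note: KINOMEscan kinase panel screen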
- statedConditions: concentration: 1 μM, replicates: in singlicate; n = 1
metricName: %Inh (%)
Answers are plain numbers, in %.

Reference set, count: 10
COc1cccc(C2=C(Nc3cc(Cl)c(O)c(Cl)c3)C(=O)NC2=O)c1; 0
CN1c2ccc(-c3ccc(C(N)=O)cc3)cc2-c2[nH]ncc2S1(=O)=O; 0
COc1ccc(Nc2nccc(NCCNC(=O)Nc3cc(C)ccc3C)n2)cc1; 0
COc1ccc(-c2coc3ccc(-c4nnc(C)o4)cc23)cc1; 0
Cn1cncc1C(=O)NC1CCN(c2ccnc(Nc3ccc(F)cc3)n2)C1 (stereo not drawn); 0
Cc1ccc(NC(=O)Nc2ccc(Cl)cc2)cc1-c1ccc(C(=O)Nc2ccncc2)cc1; 0
c1ccc(-c2ccnc3[nH]ccc23)cc1; 53
CCc1ccc(-c2ccc3c(c2)-c2n[nH]cc2S(=O)(=O)N3C)cc1; 0
O=C1NC(=O)C(c2ccc(Cl)cc2)=C1Nc1ccc(O)cc1; 0
CNc1cc(-c2ccc3c(N)n[nH]c3c2)nc(N)n1; 20

List reported %Inh for each of these compounds:
1. CC(=O)c1c(C)c2cnc(Nc3ccc(N4CCNCC4)cn3)nc2n(C2CCCC2)c1=O
2. CC(=O)c1cccc(NC(=O)NC2CCN(c3ccnc(Nc4ccc(F)cc4)n3)C2)c1 (stereo not drawn)
3. Cc1ccc(-c2nc(Nc3ccncc3)c3ccccc3n2)s1

a:
[26, 2, 0]

List reported %Inh for each of these compounds:
1. COc1ccc(Nc2nccc(-c3ccc(NC(=O)c4cc5cc(F)ccc5[nH]4)cc3)n2)cc1
2. COC(=O)C(NC(=O)NC1CCN(c2ccnc(Nc3ccc(F)cc3)n2)C1)c1ccccc1 (stereo not drawn)

a:
[1, 5]

List reported %Inh for each of these compounds:
1. COc1ccc(CSc2nnc(-c3ccc4c(c3)CCO4)o2)cc1
2. COc1ccc(Nc2nccc(N3CCC(NC(=O)C(C)c4ccc(Cl)cc4)C3)n2)cc1 (stereo not drawn)

a:
0
0

q: Complete the entry with %Inh for CS(=O)(=O)CCNCc1nc(-c2ccc3ncnc(Nc4ccc5c(cnn5Cc5ccccc5)c4)c3c2)cs1.Cl.Cl
a: 0
